- System: NCI-H196 complex spheroid viability
- Protocol notes: Anticancer human tumor NCI-H196 cell line growth inhibition [LSD1];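 note: spheroids exposed to agents for 7 days before readout; 100% = DMSO vehicle control viability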
- Condition info: second compound 3.16 µM; first compound 0.316 µM; hits give low values
Measured metric: viability, T/C (%)
Value expressed in %; do not type the unit.

q: Quickly give me recorded viability, T/C for CC1COCCN1c1cc(-c2ccnn2C)c2ccnc(-c3ccn[nH]3)c2n1 (stereo not drawn) + NC1CC1c1ccc(-c2cccc(O)c2)cc1
a: 47.7

q: Quickly give me recorded viability, T/C for CC1COCCN1c1cc(-c2ccnn2C)c2ccnc(-c3ccn[nH]3)c2n1 (stereo not drawn) + NC1CCC(NC2CC2c2ccccc2)CC1
a: 53.9

q: Quickly give me recorded viability, T/C for CC1(C)CCC(CN2CCN(c3ccc(C(=O)NS(=O)(=O)c4ccc(NCC5CCOCC5)c([N+](=O)[O-])c4)c(Oc4cnc5[nH]ccc5c4)c3)CC2)=C(c2ccc(Cl)cc2)C1 + NC1CC1c1ccc(-c2cccc(O)c2)cc1
a: 101

Each recorded value in this set is attributed to PubChem BioAssay AID1918958.
